Tested on: MDA-N
experiment.description: NCI tumour cell line growth inhibition, 48 h
Active and inactive are the calls of the source. Cut-off read from the data, not from the text of the source: active = GI50 up to about 1.1 µM and inactive = higher.
readout.label: GI50

{"molecule": "Cc1ccc([N+](=O)[O-])cc1S(=O)(=O)Nc1ccc(C2=NOC(c3ccccc3O)C2)cc1 (configuration not stated)", "GI50": "1.56 µM (inactive)"}

*Q* Tell me the measured GI50 of CCOC(=O)c1cn(CC)c2cc3c(cc2c1=O)CCS3(=O)=O , please.
*A* > 100 µM (inactive)

###

The entries below come with measured GI50 values attached.
Test system: HOP-18
experiment.description: NCI tumour cell line growth inhibition, 48 h
Counter-ions that a name gives are not always drawn. Activity calls are given as the source filed them. Rule as the data show it: active = GI50 up to about 1.1 µM and inactive = higher.

{"compound": "COc1ccc(/C=C\\c2cc(OC)c(OC)c(OC)c2)cc1OC(=O)NCCN(C)C", "GI50": "16.8 µM (inactive)"}
{"compound": "CCCCCCCCCCCC(=O)OCC1OC(OC)C(NC(=O)N(CCCl)N=O)C(O)C1O (stereo unspecified)", "GI50": "34.3 µM (inactive)"}
{"compound": "COc1ccc(/C=N/n2cnc3c(c2=O)SC(=C(C#N)C#N)N3c2ccccc2)cc1", "GI50": "50.7 µM (inactive)"}
{"compound": "NCCSSCCN [CYSTAMINE HYDROCHLORIDE]", "GI50": "> 100 µM (inactive)"}
{"compound": "Cc1nnc(N/N=C(/C(=O)C(C#N)c2ccc(Cl)cc2)C(C#N)c2ccc(Cl)cc2)n1N (stereo unspecified)", "GI50": "16.4 µM (inactive)"}
{"compound": "COc1ccc(C(=C[N+](=O)[O-])c2ccc(OC)cc2)cc1", "GI50": "> 100 µM (inactive)"}
{"compound": "CC1=NN(C(=O)c2ccc(C)cc2)C(=O)C1/N=N/c1ccccc1C(=O)O (stereo unspecified)", "GI50": "> 100 µM (inactive)"}
{"compound": "CC1(C)NC(=O)N(CCCCCCN2C(=O)NC(C)(C)C2=O)C1=O", "GI50": "> 100 µM (inactive)"}

*Q* Quick one: GI50 of CCOC(=O)c1ccc(N2C(=O)/C(=C/c3ccc(N(CCC#N)CCC#N)cc3)N=C2c2cc([N+](=O)[O-])ccc2Cl)cc1 ?
*A* > 100 µM (inactive)

*Q* What does the record list as GI50 for O=c1ccn(/C=C/C(O)C(O)CO)c(=O)[nH]1 (stereo unspecified) ?
*A* > 100 µM (inactive)

*Q* Entry COc1ccc(OC)c(/C=C/C(=O)C(C)(C)C)c1 : reported GI50 = ?
*A* 21.3 µM (inactive)

###

Tested on: Malme-3M
experiment.description: NCI tumour cell line growth inhibition, 48 h
Activity calls are given as the source filed them. No stated cut-off is given here; in the data, active = GI50 up to about 1.1 µM and inactive = higher.
GI50: recorded values

{"compound": "COc1cc2cc3c4c(cc(OC)c(OC)c4c2cc1OC)CCN3C(=O)CCCC(=O)O", "system": "Malme-3M", "GI50": "> 100 µM (inactive)"}
{"compound": "c1ccc2[nH]c(C3CCCCO3)nc2c1 (stereo not drawn)", "system": "Malme-3M", "GI50": "> 100 µM (inactive)"}

*Q* # returns recorded GI50 (system: Malme-3M) for Nc1ccc(S(=O)(=O)Nc2nnc(S(N)(=O)=O)s2)cc1
*A* > 100 µM (inactive)

*Q* Provide the documented GI50 with Malme-3M as the system for CCOC(=O)N1N(c2ccccc2)C(=O)C1(c1ccccc1)c1ccccc1
*A* 97.7 µM (inactive)
